assay: Oral bioavailability in rat at 50 mg/kg and measured upto 24 hr by LC-MS/MS analysis; format: ADME, organism-based; details: in vivo
Assign bioavailability to each entry below.
Write the value in % as a bare number.

Entry "CC(C)c1cc(C(=O)N2C[C@@H](c3ccccc3)C[C@@H]2C(=O)NCCCN2CCOCC2)c(O)cc1O" — recorded bioavailability = 5.5

Entry "O=C(NCCCN1CCOCC1)[C@H]1C[C@H](c2ccccc2)CN1C(=O)c1cc(C2CC2)c(O)cc1O" — recorded bioavailability = 7.1

* * *

tested on: A549; assay: Antiproliferative activity against human A549 cells assessed as cell viability inhibition rate incubated for 72 hr by MTT assay; format: functional, cell-based; conditions: A549, 72 h
Assign pIC50 to each entry below.
When answering, recall that pIC50 equals minus log10 of the concentration in mol/L, and write that number alone.

Entry "CC(C)c1cc(C(=O)N2C[C@@H](c3ccccc3)C[C@@H]2C(=O)NCc2ccccc2Cl)c(O)cc1O" — recorded pIC50 = 7.14

Entry "CC(C)c1cc(C(=O)N2Cc3ccc(CN4CCN(C)CC4)cc3C2)c(O)cc1O" — recorded pIC50 = 6.88

Entry "CC(C)CNC(=O)[C@H]1C[C@H](c2ccccc2)CN1C(=O)c1cc(C2CC2)c(O)cc1O" — recorded pIC50 = 7.05
